# Assay protocol: Antioxidant effect: free organic radical-scavenging activity (ABTS) using cell lysate
# Assay type: biochemical
# Recorded conditions: Table 1 summary of Example 3; symbols not defined
# Method: It was examined whether the benzene diamine derivatives of the present disclosure have an antioxidant effect. […] Free organic radical-scavenging activity of the compound was determined according to a protocol of Cayman Chemical Company (Ann Arbor, Mich., USA) with slight modifications. […] The mixture was incubated on a shaker at room temperature for 5 minutes, and absorbance at 750 nm was measured. […]
Readout type: Reactive oxygen species (antioxidant effect)

CN(C)c1ccc(NCc2nccn2C)cc1 = ◯
Nc1ccc(NCc2ccc(F)cn2)cc1 = ◯
CN(C)c1ccc(NCCS)cc1 = ◯
